pIC50: −log10 of the molar value.
Please find below pIC50 data on C-X-C chemokine receptor type 1 (Homo sapiens, UniProt P25024) compiled from the literature.
Sequence (P25024 whole entry): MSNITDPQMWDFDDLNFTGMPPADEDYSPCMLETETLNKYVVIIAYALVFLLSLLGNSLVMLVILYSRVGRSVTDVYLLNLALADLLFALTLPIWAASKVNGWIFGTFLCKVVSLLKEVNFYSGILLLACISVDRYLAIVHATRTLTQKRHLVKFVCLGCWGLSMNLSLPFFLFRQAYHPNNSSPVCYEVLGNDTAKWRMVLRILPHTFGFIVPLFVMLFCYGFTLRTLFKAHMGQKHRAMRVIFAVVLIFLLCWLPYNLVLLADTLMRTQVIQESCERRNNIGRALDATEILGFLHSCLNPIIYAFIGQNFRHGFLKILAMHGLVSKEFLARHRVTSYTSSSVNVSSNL
Label 1 for high-side pIC50 (at or above 6) and -1 for low-side pIC50 (below it).

Below, 6 compounds whose answers are already recorded.
1. CCC(Nc1c(Nc2cccc(C(=O)N(C)C)c2O)c(=O)c1=O)c1cc(-c2c(C)noc2C)co1 (centres undefined); 1
2. CCC(Nc1c(Nc2cccc(C(=O)N(C)C)c2O)c(=O)c1=O)c1ccc(-c2ccccc2Cl)o1 (centres undefined); -1
3. CCC(Nc1c(Nc2cccc(C(=O)N(C)C)c2O)c(=O)c1=O)c1cc(Br)co1 (centres undefined); 1
4. CC1=CCC[C@H]1NC(=O)Nc1ccc(Cl)c(S(=O)(=O)[C@@]2(C)CCOC2)c1O; -1
5. CCC(Nc1c(Nc2cccc(C(=O)N(C)C)c2O)c(=O)c1=O)c1cc(-c2ccsc2)co1 (centres undefined); 1
6. CCC(Nc1c(Nc2cccc(C(=O)N(C)C)c2O)c(=O)c1=O)c1ccncc1 (centres undefined); -1

query: Could you please find out whether O=C(Nc1ccccc1)Nc1cc([N+](=O)[O-])ccc1O has pIC50 that meets 6 or exceeds it?
result: -1

query: Could you please find out whether O=c1c(Nc2ccccc2)c(Nc2ccc([N+](=O)[O-])cc2O)c1=O has pIC50 that meets 6 or exceeds it?
result: 1

query: Could you please find out whether CCC(Nc1c(Nc2cccc(C(=O)N(C)C)c2O)c(=O)c1=O)c1nc(C)no1 (centres undefined) has pIC50 that meets 6 or exceeds it?
result: 1
